Test system: P. aeruginosa 101243
Format: cell-based, Pseudomonas aeruginosa
Details: 101243
Positions of bridges follow the written chain, without caps; N, C: chain ends. Non-standard residues stand in square brackets, D forms with d. Residues, ends and D or L forms follow the SMILES beside them. *: point of attachment. Octanoyl = CCCCCCCC(=O)*; Dab = NCC[C@H](N)C(=O)O
Quantity kind: MIC (µg/mL)
Numbers only; they are read as µg/mL.

Need MIC of CCCCCCCC(=O)NCC[C@H](NC(=O)CCCCCCC)C(=O)N[C@H](C(=O)N[C@@H](CCN)C(=O)N[C@H]1CCNC(=O)[C@H]([C@@H](C)O)NC(=O)[C@H](CCN)NC(=O)[C@H](CCN)NC(=O)[C@H](CC(C)C)NC(=O)[C@@H](Cc2ccccc2)NC(=O)[C@H](CCN)NC1=O)[C@@H](C)O [Compound 2, Dioctanoic Acid (Di-C8) Polymyxin] (Octanoyl-[Dab](Octanoyl)T[Dab][Dab][Dab][dF]L[Dab][Dab]T; lactam 4-C) , thanks.
32

---

Tested on: P. aeruginosa PAO1
Set-up: unit not given beside the values
Details: in combination with Rifampicin
Positions of bridges follow the written chain, without caps; N, C: chain ends. Non-standard residues stand in square brackets, D forms with d. Residues, ends and D or L forms follow the SMILES beside them. *: point of attachment. Lauroyl = CCCCCCCCCCCC(=O)*; Dab = NCC[C@H](N)C(=O)O; Butyryl = CCCC(=O)*

Compound	MIC of adjuvant in combo
CCCC(=O)NCC[C@H](NC(=O)CCC)C(=O)N[C@H](C(=O)N[C@@H](CCN)C(=O)N[C@H]1CCNC(=O)[C@H]([C@@H](C)O)NC(=O)[C@H](CCN)NC(=O)[C@H](CCN)NC(=O)[C@H](CC(C)C)NC(=O)[C@@H](Cc2ccccc2)NC(=O)[C@H](CCN)NC1=O)[C@@H](C)O [Compound 1, Dibutyric Acid (Di-C4) Polymyxin] (Butyryl-[Dab](Butyryl)T[Dab][Dab][Dab][dF]L[Dab][Dab]T; lactam 4-C)	(2)
CCCCCCCCCCCC(=O)NCC[C@H](NC(=O)CCCCCCCCCCC)C(=O)N[C@H](C(=O)N[C@@H](CCN)C(=O)N[C@H]1CCNC(=O)[C@H]([C@@H](C)O)NC(=O)[C@H](CCN)NC(=O)[C@H](CCN)NC(=O)[C@H](CC(C)C)NC(=O)[C@@H](Cc2ccccc2)NC(=O)[C@H](CCN)NC1=O)[C@@H](C)O [Compound 3, Didodecanoic Acid (Di-C12) Polymyxin] (Lauroyl-[Dab](Lauroyl)T[Dab][Dab][Dab][dF]L[Dab][Dab]T; lactam 4-C)	(8)
CC(C)C[C@@H]1NC(=O)[C@@H](Cc2ccccc2)NC(=O)[C@H](CCN)NC(=O)[C@@H](NC(=O)[C@H](CCN)NC(=O)[C@@H](N)[C@@H](C)O)CCNC(=O)[C@H]([C@@H](C)O)NC(=O)[C@H](CCN)NC(=O)[C@H](CCN)NC1=O [PMBN, polymyxin B nonapeptide, reference compound] (H-T[Dab][Dab][Dab][dF]L[Dab][Dab]T; lactam 3-C (inferred))	(0.5)

---

Tested on: P. aeruginosa PAO1
Design: unit not given beside the values
Details: in combination with Doxycycline
Procedure: The potential of the dilipid polymyxins to serve as an adjuvant in combination with other antibiotics was evaluated against P. aeruginosa PAO1 strain (Tables 4 and 7-12). […] Fractional inhibitory concentration (FIC) index was calculated for each combination to measure potential synergism between the two agents. […] Initially, we assessed the adjuvant properties of PMBN against the panel of 21 antibiotics. […]
Positions of bridges follow the written chain, without caps; N, C: chain ends. Non-standard residues stand in square brackets, D forms with d. Residues, ends and D or L forms follow the SMILES beside them. *: point of attachment. Benzoyl(4-Ph) = O=C(c1ccc(-c2ccccc2)cc1)*; Lauroyl = CCCCCCCCCCCC(=O)*; Dab = NCC[C@H](N)C(=O)O; Butyryl = CCCC(=O)*

Compound	Experimental target	MIC of adjuvant in combo
CCCCCCCCCCCC(=O)NCC[C@H](NC(=O)CCCCCCCCCCC)C(=O)N[C@H](C(=O)N[C@@H](CCN)C(=O)N[C@H]1CCNC(=O)[C@H]([C@@H](C)O)NC(=O)[C@H](CCN)NC(=O)[C@H](CCN)NC(=O)[C@H](CC(C)C)NC(=O)[C@@H](Cc2ccccc2)NC(=O)[C@H](CCN)NC1=O)[C@@H](C)O [Compound 3, Didodecanoic Acid (Di-C12) Polymyxin] (Lauroyl-[Dab](Lauroyl)T[Dab][Dab][Dab][dF]L[Dab][Dab]T; lactam 4-C)	P. aeruginosa PAO1	(16)
CC(C)C[C@@H]1NC(=O)[C@@H](Cc2ccccc2)NC(=O)[C@H](CCN)NC(=O)[C@@H](NC(=O)[C@H](CCN)NC(=O)[C@@H](NC(=O)[C@H](CCNC(=O)c2ccc(-c3ccccc3)cc2)NC(=O)c2ccc(-c3ccccc3)cc2)[C@@H](C)O)CCNC(=O)[C@H]([C@@H](C)O)NC(=O)[C@H](CCN)NC(=O)[C@H](CCN)NC1=O [Compound 5] ({Benzoyl(4-Ph)}-[Dab](Benzoyl(4-Ph))T[Dab][Dab][Dab][dF]L[Dab][Dab]T; lactam 4-C)	P. aeruginosa PAO1	(8)
CCCC(=O)NCC[C@H](NC(=O)CCC)C(=O)N[C@H](C(=O)N[C@@H](CCN)C(=O)N[C@H]1CCNC(=O)[C@H]([C@@H](C)O)NC(=O)[C@H](CCN)NC(=O)[C@H](CCN)NC(=O)[C@H](CC(C)C)NC(=O)[C@@H](Cc2ccccc2)NC(=O)[C@H](CCN)NC1=O)[C@@H](C)O [Compound 1, Dibutyric Acid (Di-C4) Polymyxin] (Butyryl-[Dab](Butyryl)T[Dab][Dab][Dab][dF]L[Dab][Dab]T; lactam 4-C)	P. aeruginosa PAO1	(2)

---

Test system: P. aeruginosa PAO1
Parameters: unit not given beside the values
Conditions: antibiotic in combination with 5
Protocol: The potential of the dilipid polymyxins to serve as an adjuvant in combination with other antibiotics was evaluated against P. aeruginosa PAO1 strain (Tables 4 and 7-12). […] Fractional inhibitory concentration (FIC) index was calculated for each combination to measure potential synergism between the two agents. […] Initially, we assessed the adjuvant properties of PMBN against the panel of 21 antibiotics. […]
Quantity kind: MICDrug in combo

Molecule	Quantity kind	Measured
C[C@@H](O)[C@H]1C(=O)N2C(C(=O)O)=C(S[C@@H]3CN[C@H](CNS(N)(=O)=O)C3)[C@H](C)[C@H]12 [Doripenem, reference compound]	MICDrug in combo	(0.5)
C[C@H]1[C@H](NC(=O)/C(=N\OC(C)(C)C(=O)O)c2csc(N)n2)C(=O)N1S(=O)(=O)O [Aztreonam, reference compound]	MICDrug in combo	(0.5)
CN[C@H](CC(C)C)C(=O)N[C@H]1C(=O)N[C@@H](CC(N)=O)C(=O)N[C@H]2C(=O)N[C@H]3C(=O)N[C@H](C(=O)N[C@H](C(=O)O)c4cc(O)cc(O)c4-c4cc3ccc4O)[C@H](O)c3ccc(c(Cl)c3)Oc3cc2cc(c3O[C@@H]2O[C@H](CO)[C@@H](O)[C@H](O)[C@H]2O[C@H]2C[C@](C)(N)[C@H](O)[C@H](C)O2)Oc2ccc(cc2Cl)[C@H]1O [Vancomycin, reference compound]	MICDrug in combo	(2)
CC(=O)NC[C@H]1CN(c2ccc(N3CCOCC3)c(F)c2)C(=O)O1 [Linezolid, reference compound]	MICDrug in combo	(32)
[H]/N=C(/N)N[C@H]1[C@H](O)[C@@H](O)[C@H](O[C@@H]2O[C@@H](C)[C@](O)(C=O)[C@H]2O[C@@H]2O[C@@H](CO)[C@H](O)[C@@H](O)[C@@H]2NC)[C@@H](N/C(N)=N\[H])[C@@H]1O [Streptomycin, reference compound]	MICDrug in combo	(8)

# MICDrug in combo lookup, item C=C[C@]1(C)C[C@@H](OC(=O)CO)[C@]2(C)[C@H](C)CC[C@]3(CCC(=O)[C@H]32)[C@@H](C)[C@@H]1O [Pleuromutilin, reference compound]
(2)

---

Test system: P. aeruginosa PAO1
Parameters: unit not given beside the values
Conditions: antibiotic in combination with 5
Quantity kind: MICDrug in combo

Completed entries (count: 4):
Compound	MICDrug in combo
CN(C)c1ccc(O)c2c1C[C@H]1C[C@H]3[C@H](N(C)C)C(O)=C(C(N)=O)C(=O)[C@@]3(O)C(O)=C1C2=O [Minocycline, reference compound]	(2)
CO[C@@H]1[C@@H](OC(N)=O)[C@@H](O)[C@H](Oc2ccc3c(O)c(NC(=O)c4ccc(O)c(CC=C(C)C)c4)c(=O)oc3c2C)OC1(C)C [Novobiocin, reference compound]	(128)
NC[C@H]1O[C@H](O[C@H]2[C@H](O)[C@@H](O[C@H]3O[C@H](CO)[C@@H](O)[C@H](N)[C@H]3O)[C@H](N)C[C@@H]2N)[C@H](N)C[C@@H]1O [Tobramycin, reference compound]	(1)
C[C@@H](O)[C@H]1C(=O)N2C(C(=O)O)=C(S[C@@H]3CN[C@H](C(=O)N(C)C)C3)[C@H](C)[C@H]12 [Meropenem, reference compound]	(0.5)

Okay, next one:
Which value of MICDrug in combo has been reported for O=C(N[C@H](CO)[C@H](O)c1ccc([N+](=O)[O-])cc1)C(Cl)Cl [Chloramphenicol, reference compound] in the records?
(8)
